molecular target: HLA-B*40:01; assay: IEDB peptide-MHC binding, purified MHC/competitive/radioactivity; filed as Kd, often an IC50 or EC50 that approximates it; bounds were set here for any values at or beyond the usual limits of such assays; details: source organism: Dengue virus 1 Singapore/S275/1990
EXPERIMENTAL_READOUT: Kd
Write the quantity with the unit trailing the number.

(Q) Recorded Kd for KEENLVKSM with HLA-B*40:01, please?
(A) 2830 nM

###

molecular target: HLA-A*30:01; assay: IEDB peptide-MHC binding, purified MHC/competitive/radioactivity; filed as Kd, often an IC50 or EC50 that approximates it; bounds were set here for any values at or beyond the usual limits of such assays; conditions: source organism: Vaccinia virus Copenhagen
EXPERIMENTAL_READOUT: pKd
The quantity pKd is defined as the negative base-10 logarithm of the molar concentration.

{"RECORD_SEQUENCE": "RRLLKFRVE", "pKd": 5.98}

# evaluate next
(Q) Record request: pKd value, item HSLISNLLV
(A) 6.25

###

target: HLA-B*39:01; test: IEDB peptide-MHC binding, purified MHC/direct/fluorescence; filed as Kd, often an IC50 or EC50 that approximates it; bounds were set here for any values at or beyond the usual limits of such assays; settings: source organism: Influenza A virus(A/swine/Shandong/fNY/2003(H9N2))
EXPERIMENTAL_READOUT: Kd

(Q) Dear colleague, I am looking for the recorded Kd of the following sequence: ELVRKTRFL
(A) ≥ 20 µM

###

biological target: HLA-A*01:01; experiment: IEDB peptide-MHC binding, purified MHC/direct/fluorescence; filed as Kd, often an IC50 or EC50 that approximates it; bounds were set here for any values at or beyond the usual limits of such assays; conditions: source organism: Homo sapiens
EXPERIMENTAL_READOUT: Kd (nM)
Respond with the bare value in nM.

(Q) Find the measured Kd: item YLDFGGPEG , target or system HLA-A*01:01.
(A) 2460

###

target: HLA-B*15:42; assay: IEDB peptide-MHC binding, purified MHC/competitive/fluorescence; filed as Kd, often an IC50 or EC50 that approximates it; bounds were set here for any values at or beyond the usual limits of such assays; conditions: source organism: Francisella tularensis subsp. tularensis FSC198
pKd: −log10 of the molar value.
EXPERIMENTAL_READOUT: pKd

(Q) Request the reported pKd associated with YTDKIAMSY
(A) ≤ 5.30

###

molecular target: HLA-A*01:01; assay: IEDB peptide-MHC binding, purified MHC/competitive/fluorescence; bounds were set here for any values at or beyond the usual limits of such assays; conditions: source organism: Variola virus
EXPERIMENTAL_READOUT: IC50

(Q) Tell me the measured IC50 of KIDSMFLMT , please.
(A) ≥ 104 µM

###

biological target: HLA-C*08:02; experiment: IEDB peptide-MHC binding, purified MHC/direct/fluorescence; filed as Kd, often an IC50 or EC50 that approximates it; bounds were set here for any values at or beyond the usual limits of such assays; conditions: source organism: Mycobacterium tuberculosis variant bovis BCG str. Pasteur 1173P2
EXPERIMENTAL_READOUT: pKd
# pKd = -log10(concentration in molar units)

(Q) Form: Entry = FLADYGWRL | System = HLA-C*08:02 | pKd = ____
(A) 7.24

###

biological target: HLA-B*39:01; test: IEDB peptide-MHC binding, purified MHC/competitive/fluorescence; filed as Kd, often an IC50 or EC50 that approximates it; bounds were set here for any values at or beyond the usual limits of such assays; conditions: source organism: Vaccinia virus Copenhagen
EXPERIMENTAL_READOUT: pKd
Scale for pKd: -log10 of concentration given in mol/L; no unit attached.

(Q) Which pKd is listed for YPPPRYITV ?
(A) 5.45

###

Documented Kd across a set of sequences
molecular target: HLA-A*33:01; experiment: IEDB peptide-MHC binding, purified MHC/competitive/radioactivity; filed as Kd, often an IC50 or EC50 that approximates it; bounds were set here for any values at or beyond the usual limits of such assays; conditions: source organism: Mammarenavirus lassaense

{"RECORD_SEQUENCE": "SHLGPQFCK", "Kd": "≥ 28.3 µM"}

The record that follows has no Kd shown yet.
(Q) Give HLA-A*33:01 Kd for TCQGSDDIK
(A) 2.84 µM

###

target: HLA-A*01:01; assay: IEDB peptide-MHC binding, purified MHC/competitive/radioactivity; filed as Kd, often an IC50 or EC50 that approximates it; bounds were set here for any values at or beyond the usual limits of such assays; settings: source organism: Lassa virus Josiah
Readings of Kd for the listed sequences
Give your result in µM as a bare value.

{"RECORD_SEQUENCE": "YCNYSKYWY", "READOUT_UNITS": "µM", "Kd": 15.8}

(Q) Sample ICLSGDGWPY — what was its Kd?
(A) 6.32

###

molecular target: HLA-A*31:01; experiment: IEDB peptide-MHC binding, purified MHC/competitive/radioactivity; filed as Kd, often an IC50 or EC50 that approximates it; bounds were set here for any values at or beyond the usual limits of such assays; conditions: source organism: Dengue virus 4 Philippines/H241/1956
EXPERIMENTAL_READOUT: pKd
pKd here is simply -log10 of the concentration when that concentration is written in mol/L.

(Q) Could you tell me which pKd is on file for SALTLHWFR ?
(A) 9.61

###

biological target: HLA-B*48:01; experiment: IEDB peptide-MHC binding, purified MHC/competitive/fluorescence; filed as Kd, often an IC50 or EC50 that approximates it; bounds were set here for any values at or beyond the usual limits of such assays; settings: source organism: Orthomarburgvirus marburgense
pKd: −log10 of the molar value.
EXPERIMENTAL_READOUT: pKd

(Q) For LYKTIVNIW , what is its reported pKd?
(A) ≤ 4.70

###

biological target: HLA-B*57:01; test: IEDB peptide-MHC binding, purified MHC/direct/fluorescence; filed as Kd, often an IC50 or EC50 that approximates it; bounds were set here for any values at or beyond the usual limits of such assays; conditions: source organism: Influenza A virus (A/equine/New York/1/1999(H3N8))
EXPERIMENTAL_READOUT: Kd

(Q) Item ELVRKTRFL has what recorded Kd?
(A) ≥ 20 µM

###

target: HLA-C*05:01; experiment: IEDB peptide-MHC binding, purified MHC/direct/fluorescence; filed as Kd, often an IC50 or EC50 that approximates it; bounds were set here for any values at or beyond the usual limits of such assays; details: source organism: Brucella abortus S19
EXPERIMENTAL_READOUT: pKd
API: returns pKd as number; meaning -log10 of concentration in mol/L.

(Q) Requested read-out pKd, target or system HLA-C*05:01, entry YVDIIGLSV
(A) 8.70

###

target: HLA-A*11:01; experiment: IEDB peptide-MHC binding, purified MHC/competitive/fluorescence; filed as Kd, often an IC50 or EC50 that approximates it; bounds were set here for any values at or beyond the usual limits of such assays; conditions: source organism: Lyssavirus rabies
EXPERIMENTAL_READOUT: Kd

(Q) Fill blank: measured Kd of the sequence RQMKSGGRF is ____.
(A) ≥ 20 µM

###

Reported Kd values for a set of sequences
target: HLA-A*26:01; test: IEDB peptide-MHC binding, purified MHC/competitive/radioactivity; filed as Kd, often an IC50 or EC50 that approximates it; bounds were set here for any values at or beyond the usual limits of such assays; conditions: source organism: Mammarenavirus guanaritoense

Consider the following illustrative entries.
{"RECORD_SEQUENCE": "TTDFTRLRY", "RESULT": "2.41 µM"}
{"RECORD_SEQUENCE": "YSEESPTEY", "RESULT": "≥ 77.9 µM"}

Now for another entry.
(Q) Please give the measured Kd for this sequence: SWDNTSVDLY
(A) ≥ 69.7 µM

###

molecular target: HLA-A*32:15; experiment: IEDB peptide-MHC binding, purified MHC/competitive/fluorescence; filed as Kd, often an IC50 or EC50 that approximates it; bounds were set here for any values at or beyond the usual limits of such assays; conditions: source organism: Giardia lamblia ATCC 50803
EXPERIMENTAL_READOUT: Kd (µM)
Output spec: scalar in µM, unitless text.

(Q) Report Kd for YTFFFTQYF please.
(A) 0.0911

###

target: HLA-B*07:02; assay: IEDB peptide-MHC binding, purified MHC/competitive/fluorescence; filed as Kd, often an IC50 or EC50 that approximates it; bounds were set here for any values at or beyond the usual limits of such assays; settings: source organism: Escherichia coli O157:H7 str. EDL933
EXPERIMENTAL_READOUT: Kd (nM)
Number only, in nM; omit the unit.

(Q) // fetch HLA-B*07:02 Kd for MQRSGMLSL
(A) 7

Measured values drawn from the Immune Epitope Database (IEDB) for this set.
